assay: LNP size and size distribution by Dynamic Light Scattering (Method B); format: physicochemical; conditions: LNP formulated by Method B, GFP-mRNA loaded, DLS Z-average, 37 C
# Size (nm) values compiled below
Supply the numeric figure in nm, leaving out any unit text.

// lookup Size (nm) for CCCCCCCCOC(CCCCCCC)O[Si](C)(C)OCCCCCCN(CCCCCCOC(=O)C(CCCCCC)CCCCCCCC)CCC1CCCN1C (stereo not drawn) 210

// lookup Size (nm) for CCCCCCCCCCOC(C)O[Si](C)(C)OCCCCCCN(CCCCO)CCCCCCOC(=O)C(CCCCCC)CCCCCCCC (stereo not drawn) 248.0

// lookup Size (nm) for CCCCCCCCC(CCCCCC)C(=O)OCCCCCCN(CCCCO)CCCCCCO[Si](C)(C)OC1CCCCCCCCCCCCCCO1 (stereo not drawn) 238.0

// lookup Size (nm) for CCCCCCCCCCOC(CCC)O[Si](C)(C)OCCCCCCN(CCCCO)CCCCCCOC(=O)C(CCCCCC)CCCCCCCC (stereo not drawn) 267.0

---

test: LNP size, PDI and zeta potential by Dynamic Light Scattering (Method A); type: physicochemical; conditions: LNP formulated by Method A, DLS
Consider the cut-off 0.07. If the recorded PDI is strictly smaller, the label is condition met; if not, the label is condition not met.

| compound | class |
| --- | --- |
| CCCCCCCCC(CCCCCC)C(=O)OCCCCCCN(CCCCO)CCCCCCO[Si](C)(C)OC(CCCCCCC)OCCCCCCC (stereo not drawn) [Example 140] | condition met |
| CCCCCCCCC(CCCCCC)CO[Si](C)(C)OC(CCCCCCC)OCCCCCCN(CCCCO)CCC[C@@H](C)C1CCC2C3CCC4C[C@H](OC)CC[C@]4(C)C3CC[C@@]21C (stereo partly drawn) [Example 223] | condition not met |
| CCCCCCCCOC(CCCCCN(CCCCO)CCCCCCOC(=O)C(CCCCCCCC)SCCCCC)O[Si](C)(C)O[Si](C)(C)OCCCCCCCC (stereo not drawn) [Example 183] | condition met |
| CC/C=C\C/C=C\C/C=C\C/C=C\C/C=C\CCCCN(CCCCO)CCCCCC(OCCCCCCCC)O[Si](C)(C)CCCCCCCC (stereo not drawn) [Example 194] | condition not met |

Dear reviewer, please state whether CCCCCCCCC(CCCCCC)C(=O)OCCCCCCN(CCCCO)CCCCCCOC(CCCCCCC)O[Si](C)(C)CCCCCCCC (stereo not drawn) [Example 129] has PDI strictly beneath 0.07. condition met

---

# EE (%) values compiled below
test: Encapsulation efficiency, RiboGreen RNA assay (Method A); type: physicochemical; details: LNP formulated by Method A
Supply the numeric figure in %, leaving out any unit text.

Use these answered entries as a reference point.
| compound | u | reported.value |
| --- | --- | --- |
| CCCCCCCCCCSC(CCCC)C(=O)OCCCCCCN(CCCCO)CCCCCCOC(CCCCCCC)O[Si](C)(C)O[Si](C)(C)CCCCCCCC (stereo not drawn) | % | 95 |
| CC/C=C\C/C=C\C/C=C\C/C=C\C/C=C\CCCCN(CCCCO)CCCCCC(OCCCCCCCC)O[Si](C)(C)O[Si](C)(C)OCCCCCCCC (stereo not drawn) | % | 97 |
| CC/C=C\C/C=C\C/C=C\C/C=C\C/C=C\CCCCN(CCCCO)CCCCCCOC(CCCCCCC)O[Si](C)(C)OCC(CCCCCC)CCCCCCCC (stereo not drawn) | % | 94 |
| CCCCCCCCOC(CCCCCCC)O[Si](C)(C)OCCCCCCN(CCCCO)CCCCCCOC(=O)C(CCCCCC)CCCCCCCC (stereo not drawn) | % | 94 |
| CCCCCCCCOC(CCCCCCC)O[Si](C)(C)OCCCCCCN(CCCCO)CCC[C@@H](C)C1CCC2C3CCC4C[C@H](OC)CC[C@]4(C)C3CC[C@@]21C (stereo partly drawn) | % | 98 |

// lookup EE (%) for CCCCCCCC[Si](C)(C)OC(CCCCCCC)OCCCCCCN(CCCCCCOC(CCCCCCC)O[Si](C)(C)CCCCCCCC)CCC1CCCN1C (stereo not drawn) 98

// lookup EE (%) for CC/C=C\C/C=C\C/C=C\C/C=C\C/C=C\CCCCN(CCCCO)CCCCCCOC(CCCCCCC)O[Si](C)(C)OCCCCCCCC (stereo not drawn) 97

// lookup EE (%) for CCCCCCCCOC(CCCCCN(CCO)CCCCCCCC(=O)OC(CCCCCCCC)CCCCCCCC)O[Si](C)(C)O[Si](C)(C)CCCCCCCC (stereo not drawn) 96

// lookup EE (%) for CC/C=C\C/C=C\C/C=C\C/C=C\C/C=C\CCCCN(CCCCO)CCCCCCOC(CCCCCCC)O[Si](C)(C)CCCCCCCC (stereo not drawn) 96

// lookup EE (%) for CCCCCCCCC(CCCCCC)C(=O)OCCCCCCN(CCCCO)CCCCCCO[Si](C)(C)OC(CCCCCCC)OCCCCCCC (stereo not drawn) 93

// lookup EE (%) for CCCCCCCCOC(CCCCCN(CCCCO)CCC[C@@H](C)C1CCC2C3CCC4C[C@H](OC)CC[C@]4(C)C3CC[C@@]21C)O[Si](C)(C)O[Si](C)(C)CCCCCCCC (stereo partly drawn) 97

// lookup EE (%) for CC/C=C\C/C=C\C/C=C\C/C=C\C/C=C\CCCCN(CCCCO)CCCCCCOC(CCCCCCC)O[Si](C)(C)O[Si](C)(C)CCCCCCCC (stereo not drawn) 97

---

assay: Encapsulation efficiency, RiboGreen RNA assay (Method A); format: physicochemical; conditions: LNP formulated by Method A
measured.endpoint: EE (%)
Supply the numeric figure in %, leaving out any unit text.

| compound | measured.endpoint | reported.value |
| --- | --- | --- |
| CCCCCCCCCCSC(CCCC)C(=O)OCCCCCCN(CCCCO)CCCCCCOC(CCCCCCC)O[Si](C)(C)OCC(CCCCCC)CCCCCCCC (stereo not drawn) | EE (%) | 97 |
| CCCCCCCCCCSC(CCCC)C(=O)OCCCCCCN(CCCCO)CCCCCC(OCCCCCCCC)O[Si](C)(C)OCC(CCCCCC)CCCCCCCC (stereo not drawn) | EE (%) | 96 |
| CC/C=C\C/C=C\C/C=C\C/C=C\C/C=C\CCCCN(CCCCO)CCCCCC(OCCCCCCCC)O[Si](C)(C)O[Si](C)(C)CCCCCCCC (stereo not drawn) | EE (%) | 98 |
| CCCCCCCCC(SCCCCC)C(=O)OCCCCCCN(CCCCO)CCCCCCOC(CCCCCCC)O[Si](C)(C)O[Si](C)(C)CCCCCCCC (stereo not drawn) | EE (%) | 96 |

// lookup EE (%) for CCCCCCCCC(CCCCCC)CO[Si](C)(C)OC(CCCCCCC)OCCCCCCN(CCCCO)CCC[C@@H](C)C1CCC2C3CCC4C[C@H](OC)CC[C@]4(C)C3CC[C@@]21C (stereo partly drawn) 94

// lookup EE (%) for CCCCCCCC[Si](C)(C)O[Si](C)(C)OC(CCCCCCC)OCCCCCCN(CCCCO)CCC[C@@H](C)C1CCC2C3CCC4C[C@H](OC)CC[C@]4(C)C3CC[C@@]21C (stereo partly drawn) 98

---

Experiment: Encapsulation efficiency, RiboGreen RNA assay (Method A)
Format: physicochemical
Conditions: LNP formulated by Method A
Method: The synthesized lipids were tested in term of in vitro transfection efficacy and toxicity on HeLa cells. In order to perform the mentioned biological tests, appropriate LNPs had to be formulated from the synthesized lipids. The formulation technique was different in Method A and B. The particle size, PDI and zeta potential of resulting LNPs were determined by means of Dynamic Light Scattering technique (DLS). […] • 5. […] Read using fluorescent plate reader (excitation=480, emission=525). • 8. […]
# EE (%) values compiled below
Supply the numeric figure in %, leaving out any unit text.

Use these answered entries as a reference point.
| molecule | EE (%) |
| --- | --- |
| CCCCCCCCC(CCCCCC)C(=O)OCCCCCCN(CCCCO)CCCCCCOC(CCCCCCC)O[Si](C)(C)CCCCCCCC (stereo not drawn) | 96 |
| CCCCCCCCCCSC(CCCC)C(=O)OCCCCCCN(CCCCO)CCCCCC(OCCCCCCCC)O[Si](C)(C)O[Si](C)(C)OCCCCCCCC (stereo not drawn) | 97 |

// lookup EE (%) for CCCCCCCCSC(CCCCCCC)O[Si](C)(C)OCCCCCCN(CCCCO)CCCCCCO[Si](C)(C)OC(CCCCCCC)SCCCCCCCC (stereo not drawn) 94

// lookup EE (%) for CCCCCCCCOC(CCCCCCCC)O[Si](C)(C)OCCCCCCN(CCCCO)CCCCCCOC(=O)C(CCCCCC)CCCCCCCC (stereo not drawn) 95

// lookup EE (%) for CCCCCCCCOC(CCCCCN(CCCCO)CCC[C@@H](C)C1CCC2C3CCC4C[C@H](OC)CC[C@]4(C)C3CC[C@@]21C)O[Si](C)(C)CCCCCCCC (stereo partly drawn) 97

// lookup EE (%) for CCCCCCCCOC(CCCCCN(CCCCO)CCCCCCOC(=O)C(CCCCCC)CCCCCCCC)O[Si](C)(C)OCCCCCCCC (stereo not drawn) 90
